target: mouse VISTA (mVISTA) (Mus musculus, UniProt Q9D659); construct: expressed in transfected cells; host or cells: Human embryonic kidney 293T cells; assay: Cell-Based Binding High-Content Assay For mVISTA (HC CBA mVISTA); conditions: read-out: HC CBA mVISTA IC50
Sequence (Q9D659 33-308): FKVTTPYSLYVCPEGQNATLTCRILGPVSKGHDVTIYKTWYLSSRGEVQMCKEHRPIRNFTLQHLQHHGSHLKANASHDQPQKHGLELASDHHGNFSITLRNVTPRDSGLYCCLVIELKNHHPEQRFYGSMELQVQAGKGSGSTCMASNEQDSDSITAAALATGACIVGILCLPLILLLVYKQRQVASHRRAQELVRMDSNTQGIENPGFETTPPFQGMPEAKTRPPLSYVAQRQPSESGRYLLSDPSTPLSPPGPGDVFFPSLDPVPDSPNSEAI
Positions of bridges follow the written chain, without caps; N, C: chain ends. Non-standard residues stand in square brackets, D forms with d. Residues, ends and D or L forms follow the SMILES beside them. 2Nal = N[C@@H](Cc1ccc2ccccc2c1)C(=O)O; Gly(cPr) = N[C@H](C(=O)O)C1CC1; NMeD = CN[C@@H](CC(=O)O)C(=O)O; Ahp(2) = CCCCC[C@H](N)C(=O)O; NMeNle = CCCC[C@H](NC)C(=O)O; Tle = CC(C)(C)[C@H](N)C(=O)O; NHexGly = CCCCCCNCC(=O)O; Nle = CCCC[C@H](N)C(=O)O
metric name: IC50 (nM)
Numeric only. Scale: nM

| compound | target of assay | metric name | value reported |
| --- | --- | --- | --- |
| CCCCCCN1CC(=O)N[C@@H](Cc2ccc(O)cc2)C(=O)N[C@@H](CCCC)C(=O)N[C@@H](CC(=O)O)C(=O)N[C@@H](CCCNC(=N)N)C(=O)N(C)[C@@H](CCCC)C(=O)N[C@@H](CCCCC)C(=O)N2CCC[C@H]2C(=O)N[C@@H](C(C)(C)C)C(=O)N[C@@H](CO)C(=O)N[C@H](C(=O)NCC(N)=O)CSCC(=O)N[C@@H](Cc2ccccc2)C(=O)N[C@@H](Cc2c[nH]c3ccccc23)C(=O)N[C@@H](CC(=O)O)C1=O [Example 1395] ({CH2CO}-FWD[NHexGly]Y[Nle]DR[NMeNle][Ahp(2)]P[Tle]SCG-NH2; thioether N-14) | mouse VISTA (mVISTA) (Mus musculus, UniProt Q9D659) | IC50 | 48.6 |
| CCCCCCN1CC(=O)N[C@@H](Cc2ccc(O)cc2)C(=O)N[C@@H](CCCC)C(=O)N[C@@H](CC(=O)O)C(=O)N[C@@H](CCCNC(=N)N)C(=O)N(C)[C@@H](CCCC)C(=O)N[C@@H](CCCCC)C(=O)N2CCC[C@H]2C(=O)N[C@@H](C(C)(C)C)C(=O)N[C@@H](CC(=O)O)C(=O)N[C@H](C(=O)NCC(N)=O)CSCC(=O)N[C@@H](Cc2ccccc2)C(=O)N[C@@H](Cc2c[nH]c3ccccc23)C(=O)N[C@@H](CC(=O)O)C1=O [Example 1392] ({CH2CO}-FWD[NHexGly]Y[Nle]DR[NMeNle][Ahp(2)]P[Tle]DCG-NH2; thioether N-14) | mouse VISTA (mVISTA) (Mus musculus, UniProt Q9D659) | IC50 | 38.3 |
| CCCCCCN1CC(=O)N[C@@H](Cc2ccc(O)cc2)C(=O)N[C@@H](CCCC)C(=O)N[C@@H](CC(N)=O)C(=O)N[C@@H](CCCNC(=N)N)C(=O)N(C)[C@@H](CC(=O)O)C(=O)N[C@@H](CCCCC)C(=O)N2CCC[C@H]2C(=O)N[C@@H](C(C)C)C(=O)N[C@@H](CC(=O)O)C(=O)N[C@H](C(=O)NCC(=O)O)CSCC(=O)N[C@@H](Cc2ccccc2)C(=O)N[C@@H](Cc2c[nH]c3ccccc23)C(=O)N[C@@H](CC(=O)O)C1=O [Example 1368] ({CH2CO}-FWD[NHexGly]Y[Nle]NR[NMeD][Ahp(2)]PVDCG-OH; thioether N-14) | mouse VISTA (mVISTA) (Mus musculus, UniProt Q9D659) | IC50 | 37 |

Task item: # return IC50 of CCCCCCN1CC(=O)N[C@@H](Cc2ccc(O)cc2)C(=O)N[C@@H](CCCC)C(=O)N[C@@H](CC(N)=O)C(=O)N[C@@H](CCCNC(=N)N)C(=O)N[C@@H](CC(C)C)C(=O)N[C@@H](C2CC2)C(=O)N2CCC[C@H]2C(=O)N[C@@H](C(C)C)C(=O)N[C@@H](CC(=O)O)C(=O)N[C@H](C(=O)NCC(=O)O)CSCC(=O)N[C@@H](Cc2ccc3ccccc3c2)C(=O)N[C@@H](Cc2c[nH]c3ccccc23)C(=O)N[C@@H](CC(=O)O)C1=O [compound 1182] ({CH2CO}-[2Nal]WD[NHexGly]Y[Nle]NRL[Gly(cPr)]PVDCG-OH; thioether N-14) (system: mouse VISTA (mVISTA) (Mus musculus, UniProt Q9D659))
Reply: 23.6
